# Test system: Human alphaherpesvirus 2
# procedure-text: Inhibition of growth of herpes simplex virus (HSV-2) by plaque reduction assay in vero cell line
# Format: functional, organism-based
# condition-summary: Human alphaherpesvirus 2, Vero
Kindly state IC50 for each of the entries shown.
One number for each entry, in µM.

Need IC50 for each of these molecules.
1. Nc1nc2c(ncn2COC(CO)CO)c(=O)[nH]1 [GANCICLOVIR]
2. Nc1ccn(COC(CO)CO)c(=O)n1

## Output
1. 0.1
2. 50
